System: Trichoderma virens ATCC 9645
measurement-description: growth yield (OD600) relative to untreated control; higher = less growth inhibition
condition-summary: compound concentration: 100 uM; 72 h
Screen size: about 1,300 compounds; about 75 (6%) showed an effect of 50% or more. The entries come from a sample that favours strong results as a whole.
Each entry below carries its recorded growth yield.
measured-metric: growth yield (%)

>>> number("NC(=O)OCCCc1ccccc1 [Phenprobamate]")
101
>>> number("CCCCCC[C@H]1C(=O)O[C@H](C)[C@H](NC(=O)c2cccc(NC=O)c2O)C(=O)O[C@@H](C)[C@@H]1OC(=O)CC(C)C [Antimycin A]")
49.6
>>> number("CNCC(O)c1ccc(O)cc1 (racemic) [(+,-)-Synephrine]")
100

From: the supplement of paper PMC8007513
